Listed here are compounds together with their documented MIC Strep. Pneumoniae AUCC 488 penR, macR M or iMLS.
System: S. pneumoniae AUCC488, macrolide & penicillin resistant
Test: Minimum inhibitory concentration (MIC), broth microdilution, AUCC488
Format: cell-based, Streptococcus pneumoniae

Past entries and their recorded results:
CC[C@H]1OC(=O)[C@H](C)C(=O)[C@H](C)[C@@H](O[C@@H]2O[C@H](C)C[C@H](N(C)C)[C@H]2O)[C@](C)(OC/C=C/c2cnc3ccccc3c2)C[C@@H](C)C(=O)[C@H](C)[C@H]2N(CC3CCN(C)CC3)C(=O)O[C@]12C [Compound 13L]: 0.5 to 1 µg/mL
CC[C@H]1OC(=O)[C@H](C)C(=O)[C@H](C)[C@@H](O[C@@H]2O[C@H](C)C[C@H](N(C)C)[C@H]2O)[C@](C)(OC/C=C/c2cnc3ccccc3c2)C[C@@H](C)C(=O)[C@H](C)[C@H]2N(CCOC)C(=O)O[C@]12C [Compound 13E]: 0.25 to 0.5 µg/mL
CC[C@H]1OC(=O)[C@@](C)(F)C(=O)[C@H](C)[C@@H](O[C@@H]2O[C@H](C)C[C@H](N(C)C)[C@H]2O)[C@](C)(OC)C[C@@H](C)C(=O)[C@H](C)[C@H]2N(CCCCn3cc(-c4cccc(N)c4)nn3)C(=O)O[C@]12C [solithromycin, reference compound]: 0.06 to 0.25 µg/mL
CC[C@H]1OC(=O)[C@H](C)C(=O)[C@H](C)[C@@H](O[C@@H]2O[C@H](C)C[C@H](N(C)C)[C@H]2O)[C@](C)(OC/C=C/c2cnc3ccccc3c2)C[C@@H](C)C(=O)[C@H](C)[C@H]2N(CC#N)C(=O)O[C@]12C [Compound 13H]: 0.25 to 1 µg/mL
CC[C@H]1OC(=O)[C@H](C)[C@@H](O[C@H]2C[C@@](C)(OC)[C@@H](O)[C@H](C)O2)[C@H](C)[C@@H](O[C@@H]2O[C@H](C)C[C@H](N(C)C)[C@H]2O)[C@](C)(O)C[C@@H](C)C(=O)[C@H](C)[C@@H](O)[C@]1(C)O [erythromycin, reference compound]: 8 to 16 µg/mL

Problem: Find the recorded MIC Strep. Pneumoniae AUCC 488 penR, macR M or iMLS belonging to CCC1OC(=O)C(C)C(=O)C(C)C(OC2OC(C)CC(N(C)C)C2O)C(C)(OCC=Cc2cnc3ccccc3c2)CC(C)C(=O)C(C)C2N(CC3CCN(C)C3)C(=O)OC12C (stereo not drawn) [Compound 13N] and report it.
Result: 0.5 to 1 µg/mL
